# Study Target: MAPK14 (human)
# Assay Info: Inhibition of LPS Stimulated TNF-alpha Production in THP-1 Cells
# Condition Set: thp1
pIC50: −log10 of the molar value.
Outcome Measure: pIC50

Smiles Repr: COc1ccc(-c2nc(N)sc2-c2ccnc(NC(=O)c3ccccc3)c2)cc1
Study Target: MAPK14 (human)
Outcome Measure: pIC50
Meas Value: 7.85
--
Smiles Repr: CCc1nc(-c2cccc(C)c2)c(-c2ccnc(NC(=O)c3ccsc3)c2)s1
Study Target: MAPK14 (human)
Outcome Measure: pIC50
Meas Value: 8.23
--
Smiles Repr: Cc1cccc(-c2nc(N)sc2-c2ccncc2)c1
Study Target: MAPK14 (human)
Outcome Measure: pIC50
Meas Value: 7.34
--
Smiles Repr: CCc1nc(-c2cccc(Cl)c2)c(-c2ccnc(N[C@@H](C)c3ccccc3)c2)s1
Study Target: MAPK14 (human)
Outcome Measure: pIC50
Meas Value: 7.24
--
Smiles Repr: CCc1nc(-c2ccc(Cl)cc2)c(-c2ccnc(NC(=O)c3ccccc3)c2)s1
Study Target: MAPK14 (human)
Outcome Measure: pIC50
Meas Value: 7.82
--
Smiles Repr: CCCc1nc(-c2cccc(C)c2)c(-c2ccnc(N)c2)s1
Study Target: MAPK14 (human)
Outcome Measure: pIC50
Meas Value: 8.70
--
Smiles Repr: Cc1cc(C)cc(-c2nc(N)sc2-c2ccnc(NCc3ccccc3)c2)c1
Study Target: MAPK14 (human)
Outcome Measure: pIC50
Meas Value: 6.85
--
Smiles Repr: CNc1nc(-c2ccc(OC)cc2)c(-c2ccncc2)s1
Study Target: MAPK14 (human)
Outcome Measure: pIC50
Meas Value: 6.85
--
Smiles Repr: CCc1nc(-c2cccc(Cl)c2)c(-c2ccnc(NC(C)=O)c2)s1
Study Target: MAPK14 (human)
Outcome Measure: pIC50
Meas Value: 6.92
--
Smiles Repr: Cc1cccc(-c2nc(N(C)C(=O)c3ccc(C)nc3)sc2-c2ccnc(NC3CCCC3)c2)c1
Study Target: MAPK14 (human)
Outcome Measure: pIC50
Meas Value: 7.09

Attribution: the Kinase Knowledgebase extract (Sharma et al. 2016)
